System: HCV replicon
Experimental Protocol: microbe, parasite or virus in culture
Format: cell-based
Run Parameters: Replicon IC50 values are determined by firefly luciferase signal; bicistronic replicon, 2 days; read-out: Replicon IC5Os
The following compounds are shown together with reported IC50 values.
Measured Parameter: IC50

1. CCn1c(-c2ccc3c(ccn3C)c2)c(C#N)c2ccc(OC)cc21 [Compound 427]    500 to 2000 nM
2. CCn1c(-c2ccc(C(=O)NCCNC)cc2)c(C#N)c2ccc(OC)cc21 [Compound 564]    500 to 2000 nM
3. CCn1cc(C#N)c2ccc(OC(C)C)cc21 [Compound 10]    > 2000 nM
4. CCCOC(=O)Nc1cccc(-c2c(C#N)c3cc(OC)ccc3n2CC)c1 [Compound 508]    > 2000 nM
5. COc1ccc2c(C#N)cn(-c3ccc(C)c(C)c3)c2c1 [Compound 8]    500 to 2000 nM
6. CCn1c(-c2ccc(NS(C)(=O)=O)cc2)c(C#N)c2cc(Cl)ccc21 [Compound 394]    < 500 nM
7. CCOC(=O)Nc1cccc(-c2c(C#N)c3ccc(OCCCN4CCCCC4)cc3n2CC)c1 [Compound 528]    500 to 2000 nM
8. CCCn1c(-c2ccc(N3CCCS3(=O)=O)cc2)c(C#N)c2ccc(OC)cc21 [Compound 649]    500 to 2000 nM
9. CCn1c(C#Cc2ccc(OC)cc2)c(C#N)c2ccc(O)cc21 [Compound 186]    500 to 2000 nM

====

Test system: HCV replicon
Experimental Protocol: microbe, parasite or virus in culture
Assay type: cell-based
Run Parameters: Replicon IC50 values are determined by firefly luciferase signal; bicistronic replicon, 2 days; read-out: Replicon IC5Os
pIC50: −log10 of the molar value.
Measured Parameter: pIC50

1) CCOc1ccc2c(C#N)c(-c3ccc(C(=O)N4CCOCC4)cc3)n(CC)c2c1    < 5.70
2) CCn1cc(C(=O)c2ccccc2)c2cc(OC)ccc21    < 5.70
3) C=CC(C)OC(=O)Nc1cccc(-c2c(C#N)c3ccc(OC(C)C)cc3n2CC)c1 (stereo not drawn)    < 5.70
4) CCn1c(-c2ccc(NS(=O)(=O)c3cccs3)cc2)c(C#N)c2ccc(OC)cc21    < 5.70
5) CCn1c(-c2cccc(NC(=O)NCCCl)c2)c(C#N)c2ccc(OC)cc21    5.70 to 6.30
6) COc1ccc(-n2c(C)c([N+](=O)[O-])c3cc(CN(C)C)c(O)cc32)cc1    < 5.70
7) CCn1c(-c2ccc(O)cc2)c(C#N)c2ccc(C(F)(F)F)cc21    < 5.70
8) CCn1c(C#Cc2cccs2)c(C#N)c2ccc(OC)cc21    5.70 to 6.30
9) CCn1c(C#Cc2ccc(N(C)C)cc2)c(C#N)c2ccc(OC)cc21    5.70 to 6.30
10) CCn1c(-c2ccc(NC(=O)COC)cc2)c(C#N)c2ccccc21    < 5.70
11) CCn1c(-c2ccc(C(=O)N3CCCN(C)CC3)cc2)c(C#N)c2cc(OC)ccc21    < 5.70
12) CCn1c(-c2ccc(N3CCCS3(=O)=O)cc2)c(C#N)c2ccc(OCCN3CCOCC3)cc21    > 6.30
13) CCn1c(-c2ccc(NC(=O)OCC(C)C)cc2)c(C#N)c2ccc(OC)cc21    < 5.70
14) CCCOC(=O)Nc1ccc(-c2c(C#N)c3ccc(OCCF)cc3n2CC)cc1    > 6.30
15) CCn1c(-c2ccc(NS(=O)(=O)CC)cc2)c(C#N)c2c(Cl)cccc21    < 5.70
16) COc1ccc(-n2cc(C#N)c3ccc(F)cc32)cc1    < 5.70
17) COc1ccc(OC(=O)Nc2cccc(-c3c(C#N)c4ccc(OC)cc4n3C(C)C)c2)cc1    5.70 to 6.30
18) CCn1c(-c2cccc(NC(=O)NCCc3ccccc3)c2)c(C#N)c2ccc(OC)cc21    5.70 to 6.30
19) CCn1c(-c2cccc(NC(=O)Oc3ccccc3)c2)c(C#N)c2ccc(OC)cc21    < 5.70
20) CCn1c(-c2ccc(C(=O)NCCO)cc2)c(C#N)c2ccc(OC)cc21    < 5.70
21) CCOC(=O)Nc1cccc(-c2c(C#N)c3cc(-c4cccc(OC)c4)ccc3n2CC)c1    < 5.70
22) CCn1c(C#Cc2ccc(NC(=O)C3CCCC3)cc2)c(C#N)c2ccc(O)cc21    5.70 to 6.30
23) CCOC(=O)Nc1ccc(-c2c(C#N)c3ccccc3n2CC)cc1    5.70 to 6.30
24) CCOc1ccc(-c2c(C#N)c3ccc(OC)cc3n2C)cc1    < 5.70
25) CCCCOC(=O)Nc1cccc(-c2c(C#N)c3ccc(OC)cc3n2CC)c1    5.70 to 6.30
26) CCn1c(-c2cccc(NS(=O)(=O)NC)c2)c(C#N)c2ccc(OC)cc21    5.70 to 6.30
27) CCCn1c(-c2ccc(N(C)S(=O)(=O)CC)cc2)c(C#N)c2ccc(OC)cc21    5.70 to 6.30
28) C#CCOC(=O)Nc1cccc(-c2c(C#N)c3ccc(OC)cc3n2C(C)C)c1    < 5.70
29) CCCOC(=O)Nc1ccc(-c2c(C#N)c3ccc(OC)cc3n2CCC)cc1    > 6.30
30) CCCn1cc(C#N)c2cc(Br)ccc21    < 5.70
31) CCn1c(-c2ccc(NS(=O)(=O)CC)cc2)c(C#N)c2cc(-c3cccc(OC)c3)ccc21    > 6.30
32) COc1ccc(-n2cc(C#N)c3ccc(Br)cc32)cc1    < 5.70
33) CCn1c(-c2ccc(S(=O)(=O)N(C)C)cc2)c(C#N)c2ccc(OC)cc21    < 5.70
34) CCn1c(-c2cccc(C(=O)NCCCN3CCOCC3)c2)c(C#N)c2ccc(OC)cc21    < 5.70
35) CCn1c(C#Cc2cccc(NC(=O)C(C)(C)C)c2)c(C#N)c2ccc(OC)cc21    5.70 to 6.30
36) N#Cc1c[nH]c2cc(Cl)ccc12    < 5.70
